These data points were gathered from PubChem BioAssay (Tox21).

Experiment: qHTS RealTime-Glo MT Cell Viability Assay in HepG2 cells - 0 hour (AID 1224889); further: nearly all actives have a fitted effect of over 50% in size
Details: RealTime-Glo luminescence; series mostly up to 76.8 µM
Description: U.S. Tox21 Program National Center for Advancing Translational Sciences [NCATS] NIH Chemical Genomics Center [NCGC] U.S. Environmental Protection Agency [EPA] National Institutes of Environmental Health Sciences [NIEHS] National Toxicology Program [NTP] U.S. Food and Drug Administration [FDA] Tox21 Assay Overview: Measure of cell viability is critical in the cell-base assay. Analysis of cell viability is necessary for the characterization of cell responses to cytotoxic drugs and environmental stress. […]
Results filed as inconclusive are left out. Calls of active or inactive are those of the source. The call rests on the fitted dose curve; in most records, active means well fitted cell-killing curve with a large enough effect in the repeat runs; inconclusive means weak or mixed curves, or effect the other way; inactive means flat fitted curve, though single readings scatter.
ASSAY_METRIC: outcome

COMPOUND: CC1=C(C(=O)Nc2ccccc2)S(=O)(=O)CCO1
REPORTED_VALUE: inactive
//
COMPOUND: CN(N=O)C(N)=O
REPORTED_VALUE: inactive
//
COMPOUND: [O]=[Cd]
REPORTED_VALUE: inactive
//
COMPOUND: CN/C(=N\[N+](=O)[O-])NCC1CCOC1 (stereo not given)
REPORTED_VALUE: inactive
//
COMPOUND: CCS(=O)(=O)C(C)(C)S(=O)(=O)CC
REPORTED_VALUE: inactive
//
COMPOUND: CC1(C)CON(Cc2ccccc2Cl)C1=O
REPORTED_VALUE: inactive
//
COMPOUND: O=C(Nc1ccccc1)c1ccccc1I
REPORTED_VALUE: inactive
//
COMPOUND: O=C1CN=C(c2ccccc2)c2cc([N+](=O)[O-])ccc2N1
REPORTED_VALUE: inactive

Attention now turns to another entry.
Task item: I would be grateful if you could share the reported outcome for O=C(Cc1ccccc1)OCc1ccccc1 .
Reply: inactive

###

Experiment: qHTS assay to identify small molecule agonists of the retinoic acid receptor (RAR) signaling pathway (AID 1159553)
Conditions: C3RL4 RARE luciferase reporter, agonist, 6 h; series mostly up to 73.3 µM
Inconclusive results are not listed. Activity calls are given as the source filed them. The call rests on the fitted dose curve; in most records, active means well fitted activation curve with a large enough effect in the repeat runs; inconclusive means weak or mixed curves, or effect the other way; inactive means no such curve, though single readings can be large or run the other way.
Write down the outcome that applies. Available outcomes: 1.0 for active, 0.0 for inactive

A selection of reference data follows.
MOLECULE: CC(Cl)(Cl)[N+](=O)[O-]
ASSIGNED_CLASS: 0.0

MOLECULE: CC(COc1ccc(Oc2ccccc2)cc1)Oc1ccccn1 (configuration not stated)
ASSIGNED_CLASS: 1.0

MOLECULE: Clc1cccc(N2CCNCC2)c1
ASSIGNED_CLASS: 0.0

MOLECULE: CCCCN(CCCCO)N=O
ASSIGNED_CLASS: 0.0

MOLECULE: COC(=O)c1c(C(F)F)nc(C(F)(F)F)c(C2=NCCS2)c1CC(C)C
ASSIGNED_CLASS: 0.0

Task item: Can you look up the reported call for N#CC(CCc1ccc(Cl)cc1)(Cn1cncn1)c1ccccc1 (configuration not stated) for me?
Reply: 0.0

Task item: Can you look up the reported call for COC(C)(C)C for me?
Reply: 0.0

###

Assay: Caspase-3/7 induction in CHO-K1 cells by small molecules, qHTS assay (AID 1346980); further: nearly all actives have a fitted effect of over 15% in size
Conditions: CHO-K1 caspase-3/7 induction, Caspase-Glo luminescence, 17 h; series mostly up to 92.4 µM
Activity calls are given as the source filed them. Calls follow the shape of the dose curve; as a rule, active = well fitted activation curve with a large enough effect in the repeat runs; inconclusive = weak or mixed curves; inactive = flat fitted curve, though single readings scatter.
ASSAY_METRIC: caspase-3/7 activation

Before answering, review these 5 worked examples.
MOLECULE: COC(=O)c1ccccc1S(=O)(=O)NC(=O)Nc1nc(C)cc(C)n1
REPORTED_VALUE: inactive
//
MOLECULE: C#C[C@]1(O)C=C[C@H]2[C@@H]3CCC4=CC(=O)CC[C@@H]4[C@H]3CC[C@@]21CC
REPORTED_VALUE: inactive
//
MOLECULE: CC(COc1ccc(Oc2ccccc2)cc1)Oc1ccccn1 (configuration not stated)
REPORTED_VALUE: inactive
//
MOLECULE: CN1CCN(C(=O)O[C@H]2c3nccnc3C(=O)N2c2ccc(Cl)cn2)CC1
REPORTED_VALUE: inactive
//
MOLECULE: CN1CCC(O)(c2ccc(F)cc2)C(C(=O)c2ccc(F)cc2)C1 (configuration not stated)
REPORTED_VALUE: inactive

Task item: I would be grateful if you could share the reported caspase-3/7 activation for C[C@@H]1CN(C2CCC(C#N)(c3ccc(F)cc3)CC2)CC[C@]1(C(=O)O)c1ccccc1 (some centres not stated) .
Reply: inactive

Task item: I would be grateful if you could share the reported caspase-3/7 activation for Cc1nc(N)nc(N)n1 .
Reply: inactive

Task item: I would be grateful if you could share the reported caspase-3/7 activation for CC(=O)C(Cl)Cl .
Reply: inactive

Task item: I would be grateful if you could share the reported caspase-3/7 activation for ClCC(Cl)(Cl)Cl .
Reply: inactive

Task item: I would be grateful if you could share the reported caspase-3/7 activation for CCCCOC(=O)c1ccccc1N .
Reply: inactive

Task item: I would be grateful if you could share the reported caspase-3/7 activation for CC(CCc1ccccc1)NC(C)C(O)c1ccc(O)cc1 (configuration not stated) .
Reply: inactive

Task item: I would be grateful if you could share the reported caspase-3/7 activation for O=C(CCCN1CCC(n2c(=O)[nH]c3ccccc32)CC1)c1ccc(F)cc1 .
Reply: inactive

###

Target: Aryl hydrocarbon receptor (Homo sapiens) (UniProt P35869)
Sequence (P35869 whole entry, looked up): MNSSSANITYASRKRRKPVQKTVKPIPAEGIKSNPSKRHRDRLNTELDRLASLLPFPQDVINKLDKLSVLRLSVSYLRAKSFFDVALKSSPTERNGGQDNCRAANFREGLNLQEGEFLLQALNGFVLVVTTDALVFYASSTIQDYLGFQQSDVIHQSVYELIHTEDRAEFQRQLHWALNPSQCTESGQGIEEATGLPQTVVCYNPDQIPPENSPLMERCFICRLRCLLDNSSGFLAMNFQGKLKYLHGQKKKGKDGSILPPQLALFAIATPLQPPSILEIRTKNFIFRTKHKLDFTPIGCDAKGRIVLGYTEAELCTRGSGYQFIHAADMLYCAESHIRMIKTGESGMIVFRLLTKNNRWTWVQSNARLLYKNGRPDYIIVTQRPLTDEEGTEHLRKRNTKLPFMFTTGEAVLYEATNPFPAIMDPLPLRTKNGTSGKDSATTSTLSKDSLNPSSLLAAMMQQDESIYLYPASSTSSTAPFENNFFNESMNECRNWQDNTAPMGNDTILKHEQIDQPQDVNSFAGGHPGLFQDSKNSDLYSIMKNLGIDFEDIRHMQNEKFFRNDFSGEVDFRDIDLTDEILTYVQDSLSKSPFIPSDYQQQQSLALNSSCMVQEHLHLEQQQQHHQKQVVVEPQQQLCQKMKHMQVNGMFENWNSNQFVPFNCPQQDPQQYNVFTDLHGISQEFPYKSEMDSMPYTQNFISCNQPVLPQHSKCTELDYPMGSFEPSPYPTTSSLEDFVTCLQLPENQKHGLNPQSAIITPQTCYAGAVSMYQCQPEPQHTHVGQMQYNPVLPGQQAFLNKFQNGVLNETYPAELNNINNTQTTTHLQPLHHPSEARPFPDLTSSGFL
Experiment: qHTS assay to identify small molecule that activate the aryl hydrocarbon receptor (AhR) signaling pathway (AID 743085); further: nearly all actives have a fitted effect of over 15% in size;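 on activation: HG2L7.5c1 human HepG2 liver cells with stably integrated DRE-driven firefly reporter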
Details: HepG2 AhR-luc (HG2L7.5c1), luciferase, 24 h; series mostly up to 70.3 µM
Records with an inconclusive call do not appear. Active and inactive are the calls of the source. Calls follow the shape of the dose curve; as a rule, active = well fitted activation curve with a large enough effect in the repeat runs; inconclusive = weak or mixed curves; inactive = no such curve, though single readings can be large or run the other way.
Write down the outcome that applies. Available outcomes: yes for active, no for inactive

A selection of reference data follows.
COMPOUND: CC(CCc1ccccc1)NC(C)C(O)c1ccc(O)cc1 (centres undefined)
SYSTEM_TESTED: Aryl hydrocarbon receptor (Homo sapiens) (UniProt P35869)
ASSIGNED_CLASS: no

COMPOUND: COC(=O)c1ccccc1S(=O)(=O)NC(=O)N(C)c1nc(C)nc(OC)n1
SYSTEM_TESTED: Aryl hydrocarbon receptor (Homo sapiens) (UniProt P35869)
ASSIGNED_CLASS: no

COMPOUND: COC(=O)C1=CCCN(C)C1
SYSTEM_TESTED: Aryl hydrocarbon receptor (Homo sapiens) (UniProt P35869)
ASSIGNED_CLASS: no

COMPOUND: Cc1cc(C)c(C(=O)P(=O)(C(=O)c2c(C)cc(C)cc2C)c2ccccc2)c(C)c1
SYSTEM_TESTED: Aryl hydrocarbon receptor (Homo sapiens) (UniProt P35869)
ASSIGNED_CLASS: no

Task item: Can you look up the reported call for CC(C)CC#N for me?
Reply: no

Task item: Can you look up the reported call for Nc1c(Br)cc([N+](=O)[O-])cc1[N+](=O)[O-] for me?
Reply: yes

Task item: Can you look up the reported call for OCCBr for me?
Reply: no

Task item: Can you look up the reported call for Nc1cc(Cl)ccc1O for me?
Reply: yes

Task item: Can you look up the reported call for CN(C)CCc1ccc(O)cc1 for me?
Reply: no

Task item: Can you look up the reported call for COc1ccc(C(=O)N2CCCC2=O)cc1 for me?
Reply: no

Task item: Can you look up the reported call for ClC(Cl)Br for me?
Reply: no

Task item: Can you look up the reported call for O=C1OC(c2ccc(O)c(S(=O)(=O)O)c2)(c2ccc(O)c(S(=O)(=O)O)c2)c2c(Br)c(Br)c(Br)c(Br)c21 for me?
Reply: no

Task item: Can you look up the reported call for CC(Oc1ccc(Oc2ncc(C(F)(F)F)cc2Cl)cc1)C(=O)O (centres undefined) for me?
Reply: no

Task item: Can you look up the reported call for CCCCCCI for me?
Reply: no

###

Test: A CellTox Green Cytotoxicity Assay to monitor cytotoxicity in HEK293 cells - 8 hour (AID 1224884); further: nearly all actives have a fitted effect of over 35% in size
Details: CellTox Green fluorescence; series mostly up to 76.8 µM
Records with an inconclusive call do not appear. The source made the active and inactive calls. The call rests on the fitted dose curve; in most records, active means well fitted activation curve with a large enough effect in the repeat runs; inconclusive means weak or mixed curves; inactive means flat fitted curve, though single readings scatter.
Write down the outcome that applies. Available outcomes: active, inactive

A selection of reference data follows.
COMPOUND: O=C1OC(c2ccc(O)c(S(=O)(=O)O)c2)(c2ccc(O)c(S(=O)(=O)O)c2)c2c(Br)c(Br)c(Br)c(Br)c21
ASSIGNED_CLASS: inactive
//
COMPOUND: COc1ccc(C(=O)N2CCCC2=O)cc1
ASSIGNED_CLASS: inactive
//
COMPOUND: CC1(C)COP(Oc2ccccc2)OC1
ASSIGNED_CLASS: inactive
//
COMPOUND: CC1(C)C(=O)NC(=O)NC1=O
ASSIGNED_CLASS: active
//
COMPOUND: [O]=[Cd]
ASSIGNED_CLASS: inactive
//
COMPOUND: CCCCCCBr
ASSIGNED_CLASS: inactive
//
COMPOUND: CCCCN(CCCCO)N=O
ASSIGNED_CLASS: inactive
//
COMPOUND: CC(=O)CCc1ccc2c(c1)OCO2
ASSIGNED_CLASS: inactive
//
COMPOUND: CN1CCN(C(=O)O[C@H]2c3nccnc3C(=O)N2c2ccc(Cl)cn2)CC1
ASSIGNED_CLASS: inactive
//
COMPOUND: O=[N+]([O-])c1ccc2c3c(cccc13)CC2
ASSIGNED_CLASS: inactive

Task item: Can you look up the reported call for CC(=O)CC(c1ccc(Cl)cc1)c1c(O)c2ccccc2oc1=O (configuration not stated) for me?
Reply: inactive

Task item: Can you look up the reported call for COC(=O)C(c1ccccc1)C1CCCCN1 (configuration not stated) for me?
Reply: inactive

Task item: Can you look up the reported call for Nc1cnn(-c2ccccc2)c(=O)c1Cl for me?
Reply: inactive

Task item: Can you look up the reported call for CC(Oc1ccc(Oc2ncc(C(F)(F)F)cc2Cl)cc1)C(=O)O (configuration not stated) for me?
Reply: inactive

Task item: Can you look up the reported call for O=C(N[C@H]1CN2CCC1CC2)c1cc2ccoc2cn1 for me?
Reply: inactive

Task item: Can you look up the reported call for CCC(=O)c1ccccc1 for me?
Reply: inactive

Task item: Can you look up the reported call for CCSC(=O)N(CC)C1CCCCC1 for me?
Reply: inactive
